study.system: P-gp (human MDR1) (Homo sapiens, UniProt P08183)
Construct: expressed in transfected cells; host or cells: LLC-PK1 cells stably expressing human MDR1 (gift of Professor Qingcheng Mao, University of Washington)
Sequence (P08183 whole entry): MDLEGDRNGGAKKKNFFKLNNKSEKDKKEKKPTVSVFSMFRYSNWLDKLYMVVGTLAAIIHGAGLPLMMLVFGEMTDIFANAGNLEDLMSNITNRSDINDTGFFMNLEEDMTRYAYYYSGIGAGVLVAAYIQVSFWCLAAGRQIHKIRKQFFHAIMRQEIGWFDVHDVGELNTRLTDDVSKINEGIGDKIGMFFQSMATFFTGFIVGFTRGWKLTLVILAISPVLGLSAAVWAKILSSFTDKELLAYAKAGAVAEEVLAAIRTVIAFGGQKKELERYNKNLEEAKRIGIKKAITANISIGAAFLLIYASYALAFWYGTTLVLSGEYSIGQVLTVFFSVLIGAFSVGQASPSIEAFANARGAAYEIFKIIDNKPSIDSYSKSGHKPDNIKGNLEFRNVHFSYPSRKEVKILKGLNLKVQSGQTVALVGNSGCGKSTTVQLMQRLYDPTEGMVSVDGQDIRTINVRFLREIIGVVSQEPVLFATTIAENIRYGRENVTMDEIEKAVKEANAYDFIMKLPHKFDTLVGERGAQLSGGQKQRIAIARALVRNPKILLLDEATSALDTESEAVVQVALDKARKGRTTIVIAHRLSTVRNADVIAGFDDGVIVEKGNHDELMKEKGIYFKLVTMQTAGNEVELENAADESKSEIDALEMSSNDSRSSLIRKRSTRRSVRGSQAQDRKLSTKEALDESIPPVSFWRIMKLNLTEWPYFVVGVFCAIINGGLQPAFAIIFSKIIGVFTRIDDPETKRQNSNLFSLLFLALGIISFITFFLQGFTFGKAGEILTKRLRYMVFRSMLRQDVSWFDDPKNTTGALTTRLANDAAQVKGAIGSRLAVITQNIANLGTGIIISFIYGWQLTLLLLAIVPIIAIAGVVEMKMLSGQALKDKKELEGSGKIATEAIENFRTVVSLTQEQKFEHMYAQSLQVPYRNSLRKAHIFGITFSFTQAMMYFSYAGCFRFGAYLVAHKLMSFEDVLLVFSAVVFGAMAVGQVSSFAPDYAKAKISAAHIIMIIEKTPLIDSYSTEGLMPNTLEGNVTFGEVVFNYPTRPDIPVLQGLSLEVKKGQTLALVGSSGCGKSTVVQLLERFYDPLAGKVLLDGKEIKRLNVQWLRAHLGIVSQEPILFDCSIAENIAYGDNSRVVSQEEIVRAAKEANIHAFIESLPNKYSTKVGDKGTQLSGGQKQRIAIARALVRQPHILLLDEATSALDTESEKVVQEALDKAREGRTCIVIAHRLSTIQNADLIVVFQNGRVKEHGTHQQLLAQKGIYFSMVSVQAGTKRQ
measurement.notes: Bidirectional transport across LLC-PK1-MDR1 monolayer cells with or without tariquidar
Type: in vitro ADME
stated.conditions: human, LLC-PK1, with tariquidar 5 µM, LLC-PK1-MDR1 cells, with tariquidar 5 µM; read-out: ER value (efflux ratio)
assay.metric: efflux ratio at 2 h, 2 µM

- molecule: "COC(=O)Nc1c(N)nc(-c2nn(Cc3sccc3F)c3ncc(F)cc23)nc1N [SGC003F]"
  study.system: "P-gp (human MDR1) (Homo sapiens, UniProt P08183)"
  reported.result: 1.28

// provenance: paper PMC11435065
